The origin of these recorded values is ChEMBL document CHEMBL3632504.

- Tested on: MDR1
- procedure_summary: Efflux ratio of permeability from basolateral to apical side over apical to basolateral side in MDCK cells expressing MDR1
- Format: ADME, cell-based, Canis lupus familiaris
- condition_context: dog
experimental_readout: efflux ratio
Write the number on its own, no unit after it.

// sample COc1ccc([C@H](C)NC(=O)COc2cc(C(F)(F)F)c3c(-c4ccccc4)nn(C)c3n2)cc1 , its efflux ratio was 1

====

- Species: Homo sapiens
- procedure_summary: Selectivity ratio of Ki for human orexin 1 receptor to Ki for human orexin 2 receptor
experimental_readout: Ratio Ki
Write the number on its own, no unit after it.

// sample COc1ccc([C@@H](C)NC(=O)COc2cc(C(F)(F)F)c3c(-c4ccccc4)nn(C)c3n2)cc1 , its Ratio Ki was 2.41

// sample COc1ccc([C@H](C)NC(=O)COc2cc(C(F)(F)F)c3c(-c4ccccc4)nn(C)c3n2)cc1 , its Ratio Ki was 7

// sample Cc1nn(C)c(C)c1[C@H](C)NC(=O)COc1cc(C(F)(F)F)c2c(-c3ccccc3)nn(C)c2n1 , its Ratio Ki was 0.7

// sample COc1ccc(CNC(=O)COc2cc(C(F)(F)F)c3c(-c4ccccc4)nn(C)c3n2)cc1 , its Ratio Ki was 9.64

// sample CC(NC(=O)COc1cc(C(F)(F)F)c2c(-c3ccccc3)nn(C)c2n1)c1cccnc1 (racemic) , its Ratio Ki was 1.67

====

- measurement_target: Orexin/Hypocretin receptor type 1 (Homo sapiens)
- Sequence (O43613 whole entry): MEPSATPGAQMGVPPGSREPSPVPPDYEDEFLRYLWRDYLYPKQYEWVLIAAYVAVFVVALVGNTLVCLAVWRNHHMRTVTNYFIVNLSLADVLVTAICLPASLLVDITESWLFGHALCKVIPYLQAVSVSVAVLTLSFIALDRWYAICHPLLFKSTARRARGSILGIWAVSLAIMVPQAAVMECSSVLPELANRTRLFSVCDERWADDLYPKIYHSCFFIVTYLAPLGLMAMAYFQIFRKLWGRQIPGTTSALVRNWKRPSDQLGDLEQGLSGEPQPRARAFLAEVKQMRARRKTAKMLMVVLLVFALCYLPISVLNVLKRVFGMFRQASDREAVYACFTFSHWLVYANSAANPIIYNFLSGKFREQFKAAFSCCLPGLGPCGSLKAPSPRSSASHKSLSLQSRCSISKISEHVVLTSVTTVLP
- procedure_summary: Displacement of [125l]orexin A from human orexin 1 receptor expressed in CHO cells after 1 hr
- Type: cell-based
Field: Ki. Provide a value for each of the compounds that follow.
Express the result in nM but write the number alone.

# value of Ki, Orexin/Hypocretin receptor type 1 (Homo sapiens), item CC(NC(=O)COc1cc(C(F)(F)F)c2c(-c3ccccc3)nn(C)c2n1)c1ccccc1 (racemic) = 88

# value of Ki, Orexin/Hypocretin receptor type 1 (Homo sapiens), item COc1ccc([C@H](C)NC(=O)COc2cc(C(F)(F)F)c3c(-c4ccccc4)nn(C)c3n2)cc1 = 8

====

Field: solubility thermodynamic. Provide a value for each of the molecules that follow.
- procedure_summary: Equilibrium solubility of the compound at pH 6.8
- Type: physicochemical
- condition_context: buffer

// sample Cc1n[nH]c(C)c1[C@H](C)NC(=O)COc1cc(C(F)(F)F)c2c(-c3ccccc3)nn(C)c2n1 , its solubility thermodynamic was < 4 µM

// sample C[C@H](NC(=O)COc1cc(C(F)(F)F)c2c(-c3ccccc3)nn(C)c2n1)c1ccccc1 , its solubility thermodynamic was < 4 µM

// sample COc1ccc([C@H](C)NC(=O)COc2cc(C(F)(F)F)c3c(-c4ccccc4)nn(C)c3n2)cc1 , its solubility thermodynamic was < 4 µM
